assay: Microsomal stability, mouse liver microsomes; type: in vitro ADME; details: CD-1, mouse, microsomes, pH 7.4
Property Name: half-life at 1 μM (min)
One number for each entry, in min.

smiles_string=COc1ccc(-c2cnn3c(NCc4ccccn4)cc(-c4ccccc4)nc23)cc1 measurement=60

For each of the compounds below, note its half-life at 1 μM.
1. Fc1ccc(-c2cnn3c(NCc4ccccn4)cc(-c4cccnc4)nc23)cc1
2. Fc1ccc(-c2cnn3c(NCc4ccc(F)cn4)cc(-c4ccccc4)nc23)cc1

1: 12; 2: 109

For each of the compounds below, note its half-life at 1 μM.
1. Fc1ccc(-c2cnn3c(NCc4ccccn4)cc(C4=CCCCC4)nc23)cc1
2. Fc1ccc(-c2cnn3c(NCc4ccccn4)cc(-c4ccsc4)nc23)cc1
3. Fc1ccc(-c2cnn3c(NCc4ccccn4)cc(C4CC4)nc23)cc1
4. Fc1ccc(-c2cnn3c(NCc4ccccn4)cc(-c4ccccc4)nc23)cc1

[49, 18, 13, 56]

For each of the compounds below, note its half-life at 1 μM.
1. Fc1ccc(-c2cnn3c(NCc4cc(N5CCCCC5)ccn4)cc(-c4ccccc4)nc23)cc1
2. CN(C)CC#Cc1ccc(CNc2cc(-c3ccccc3)nc3c(-c4ccc(F)cc4)cnn23)nc1
3. Fc1ccc(-c2cnn3c(NCc4ccccn4)cc(C4=CCCC4)nc23)cc1

1. 60
2. 45.4
3. 39

----------
test system: Mycobacterium tuberculosis (strain H37Rv); assay: MABA minimum inhibitory concentration assay (aerobic/replicating); format: cell-based; details: Mycobacterium tuberculosis; M.tb H37Rv, aerobic/replicating; 90% inhibition of growth
Property Name: MIC90

smiles_string=FC(F)(F)c1ccccc1-c1cnn2c(NCc3ccccn3)cc(-c3ccccc3)nc12 property_name=MIC90 measurement="> 32 mg/L"

For each of the compounds below, note its MIC90.
1. Cc1ccc(-c2cnn3c(NCc4ccccn4)cc(-c4ccccc4)nc23)cc1
2. COc1cccc(-c2cnn3c(NCc4ccccn4)cc(-c4ccccc4)nc23)c1
3. COc1ccnc(CNc2cc(-c3ccccc3)nc3c(-c4ccc(F)cc4)cnn23)c1
4. Fc1ccc(-c2cnn3c(NCc4ccccn4)cc(-c4ccccc4)nc23)cc1

1. > 32 mg/L
2. 7.6 mg/L
3. 1.9 mg/L
4. 3.8 mg/L

For each of the compounds below, note its MIC90.
1. Fc1ccc(-c2cnn3c(NCc4ccc(N5CCCCC5)cn4)cc(-c4ccccc4)nc23)cc1
2. Fc1ccc(-c2cnn3c(NCc4ccccn4)cc(-c4ccc(C(F)(F)F)cc4)nc23)cc1
3. CN(C)CC#Cc1ccc(CNc2cc(-c3ccccc3)nc3c(-c4ccc(F)cc4)cnn23)nc1
4. Fc1ccc(-c2cnn3c(NCc4ncccc4F)cc(-c4ccccc4)nc23)cc1
5. Fc1ccc(-c2cc(NCc3ccccn3)n3ncc(-c4ccc(F)cc4)c3n2)cc1

1: 0.96 mg/L; 2: 3.8 mg/L; 3: 1.9 mg/L; 4: > 32 mg/L; 5: 3 mg/L

For each of the compounds below, note its MIC90.
1. Fc1ccc(-c2cnn3c(NCc4ncccc4Br)cc(-c4ccccc4)nc23)cc1
2. CN(C)CCCc1ccc(CNc2cc(-c3ccccc3)nc3c(-c4ccc(F)cc4)cnn23)nc1
3. COc1ccc(-c2cnn3c(NCc4ccccn4)cc(-c4ccccc4)nc23)cc1
4. Fc1ccc(-c2cnn3c(NCc4ccccn4)cc(-c4cccs4)nc23)cc1
5. COc1ccc(CNc2cc(-c3ccccc3)nc3c(-c4ccc(F)cc4)cnn23)nc1

1. > 32 mg/L
2. 5.8 mg/L
3. 3.6 mg/L
4. 0.99 mg/L
5. 3.6 mg/L

For each of the compounds below, note its MIC90.
1. Fc1ccc(-c2cnn3c(NCc4ccccn4)cc(C4CC4)nc23)cc1
2. C=Cc1cc(NCc2ccccn2)n2ncc(-c3ccc(F)cc3)c2n1

["1.54 mg/L", "1.48 mg/L"]
